- assay.text: clinical
- Type: in vivo, human
- test.settings: human, plasma, oral, 30 mg, single dose 30 mg, adults (12), mean (%CV)
measured.property: AUC(0-inf) (ng·h/mL)
Answers are plain numbers, in ng·h/mL.

[ask] Please look at this compound and report its AUC(0-inf): C[C@@]1(c2nc(NC(=O)c3ncc(C(F)(F)F)cc3Cl)ccc2F)CO[C@@](C)(C(F)(F)F)C(N)=N1
[reply] 3070

###

- assay.text: clinical
- Type: in vivo, human
- test.settings: human, plasma, oral, 90 mg, 14 days, Day 14, ≥ 60 years, mean (CV%)
measured.property: Cmax (ng/mL)
One number for each entry, in ng/mL.

[ask] Give Cmax for C[C@@]1(c2nc(NC(=O)c3ncc(C(F)(F)F)cc3Cl)ccc2F)CO[C@@](C)(C(F)(F)F)C(N)=N1
[reply] 581
